Test system: 186277-243-T-J2-PDC complex spheroids, viability;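 further: spheroids exposed to compounds for 7 days before viability read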
experimental details: Anticancer human tumor 186277-243-T-J2-PDC patient-derived colon adenocarcinoma cell line growth inhibition [RAS]
test parameters: second compound 1 µM; first compound 0.1 µM; stronger effect = lower value
Label 1 when viability, T/C is strictly below 10%; at or above that, label -1.

# strict comparison: is reported viability, T/C < 10%? input = CC(C)NCC(C(=O)N1CCN(c2ncnc3c2C(C)CC3O)CC1)c1ccc(Cl)cc1 (centres undefined) + C#Cc1c(F)ccc2cc(O)cc(-c3ncc4c(N5CC6CCC(C5)N6)nc(OCC56CCCN5CC(F)C6)nc4c3F)c12
-1

# strict comparison: is reported viability, T/C < 10%? input = CCC(CC)c1cc(NC2CCC(N)C2)n2nccc2n1 (centres undefined) + C=CC(=O)N1CCN(c2nc(OCC3CCCN3C)nc3c(F)c(-c4nc(N)cc(C)c4C(F)(F)F)c(Cl)cc23)C(C)C1
-1

# strict comparison: is reported viability, T/C < 10%? input = CCC(CC)c1cc(NC2CCC(N)C2)n2nccc2n1 (centres undefined) + C#Cc1c(F)ccc2cc(O)cc(-c3ncc4c(N5CC6CCC(C5)N6)nc(OCC56CCCN5CC(F)C6)nc4c3F)c12
-1

# strict comparison: is reported viability, T/C < 10%? input = CC1(O)CCCC1n1c(=O)c(C(F)F)cc2cnc(NC3CCN(S(C)(=O)=O)CC3)nc21 (centres undefined) + C=CC(=O)N1CCN(c2nc(OCC3CCCN3C)nc3c(F)c(-c4nc(N)cc(C)c4C(F)(F)F)c(Cl)cc23)C(C)C1
-1

# strict comparison: is reported viability, T/C < 10%? input = Cc1nc(N2CCC3(CC2)COC(C)C3N)c(CO)nc1Sc1ccnc(N)c1Cl (centres undefined) + C#Cc1c(F)ccc2cc(O)cc(-c3ncc4c(N5CC6CCC(C5)N6)nc(OCC56CCCN5CC(F)C6)nc4c3F)c12
-1

# strict comparison: is reported viability, T/C < 10%? input = NC1c2ccccc2OC12CCN(c1cnc3c(N4CCCc5ncccc54)n[nH]c3n1)CC2 (centres undefined) + C#Cc1c(F)ccc2cc(O)cc(-c3ncc4c(N5CC6CCC(C5)N6)nc(OCC56CCCN5CC(F)C6)nc4c3F)c12
1

# strict comparison: is reported viability, T/C < 10%? input = CC(C)n1nc(-c2ccc3oc(N)nc3c2)c2c(N)ncnc21 + C#Cc1c(F)ccc2cc(O)cc(-c3ncc4c(N5CC6CCC(C5)N6)nc(OCC56CCCN5CC(F)C6)nc4c3F)c12
1

# strict comparison: is reported viability, T/C < 10%? input = C=CC(=O)Nc1cc(Nc2nccc(-c3cn(C)c4ccccc34)n2)c(OC)cc1N(C)CCN(C)C + C=CC(=O)N1CCN(c2nc(OCC3CCCN3C)nc3c(F)c(-c4nc(N)cc(C)c4C(F)(F)F)c(Cl)cc23)C(C)C1
-1

# strict comparison: is reported viability, T/C < 10%? input = CC(Nc1ccc2c(c1)OCCn1cc(N3C(=O)OCC3C(F)F)nc1-2)C(N)=O (centres undefined) + C=CC(=O)N1CCN(c2nc(OCC3CCCN3C)nc3c(F)c(-c4nc(N)cc(C)c4C(F)(F)F)c(Cl)cc23)C(C)C1
-1

# strict comparison: is reported viability, T/C < 10%? input = CC(C)n1nc(-c2ccc3oc(N)nc3c2)c2c(N)ncnc21 + C=CC(=O)N1CCN(c2nc(OCC3CCCN3C)nc3c(F)c(-c4nc(N)cc(C)c4C(F)(F)F)c(Cl)cc23)C(C)C1
-1

# strict comparison: is reported viability, T/C < 10%? input = CCN1CCN(Cc2ccc(Nc3ncc(F)c(-c4cc(F)c5nc(C)n(C(C)C)c5c4)n3)nc2)CC1 + C=CC(=O)N1CCN(c2nc(OCC3CCCN3C)nc3c(F)c(-c4nc(N)cc(C)c4C(F)(F)F)c(Cl)cc23)C(C)C1
-1

# strict comparison: is reported viability, T/C < 10%? input = O=C(c1ccc(F)c(F)c1Nc1ccc(I)cc1F)N1CC(O)([C@@H]2CCCCN2)C1 + C=CC(=O)N1CCN(c2nc(OCC3CCCN3C)nc3c(F)c(-c4nc(N)cc(C)c4C(F)(F)F)c(Cl)cc23)C(C)C1
-1

# strict comparison: is reported viability, T/C < 10%? input = C=CC(=O)Nc1cc(Nc2nccc(-c3cn(C)c4ccccc34)n2)c(OC)cc1N(C)CCN(C)C + C#Cc1c(F)ccc2cc(O)cc(-c3ncc4c(N5CC6CCC(C5)N6)nc(OCC56CCCN5CC(F)C6)nc4c3F)c12
-1

# strict comparison: is reported viability, T/C < 10%? input = CC(=O)OC12COC1CC(O)C1(C)C(=O)C(O)C3=C(C)C(OC(=O)C(O)C(NC(=O)OC(C)(C)C)c4ccccc4)CC(O)(C(OC(=O)c4ccccc4)C21)C3(C)C (centres undefined) + C=CC(=O)N1CCN(c2nc(OCC3CCCN3C)nc3c(F)c(-c4nc(N)cc(C)c4C(F)(F)F)c(Cl)cc23)C(C)C1
1

# strict comparison: is reported viability, T/C < 10%? input = NC1c2ccccc2OC12CCN(c1cnc3c(N4CCCc5ncccc54)n[nH]c3n1)CC2 (centres undefined) + C=CC(=O)N1CCN(c2nc(OCC3CCCN3C)nc3c(F)c(-c4nc(N)cc(C)c4C(F)(F)F)c(Cl)cc23)C(C)C1
-1

# strict comparison: is reported viability, T/C < 10%? input = Cc1nc(N2CCC3(CC2)COC(C)C3N)c(CO)nc1Sc1ccnc(N)c1Cl (centres undefined) + C=CC(=O)N1CCN(c2nc(OCC3CCCN3C)nc3c(F)c(-c4nc(N)cc(C)c4C(F)(F)F)c(Cl)cc23)C(C)C1
-1

# strict comparison: is reported viability, T/C < 10%? input = C=CC(=O)N1CCN(c2nc(OCC3CCCN3C)nc3c(F)c(-c4nc(N)cc(C)c4C(F)(F)F)c(Cl)cc23)C(C)C1 (centres undefined) + C#Cc1c(F)ccc2cc(O)cc(-c3ncc4c(N5CC6CCC(C5)N6)nc(OCC56CCCN5CC(F)C6)nc4c3F)c12
-1

# strict comparison: is reported viability, T/C < 10%? input = CCN1CCN(Cc2ccc(Nc3ncc(F)c(-c4cc(F)c5nc(C)n(C(C)C)c5c4)n3)nc2)CC1 + C#Cc1c(F)ccc2cc(O)cc(-c3ncc4c(N5CC6CCC(C5)N6)nc(OCC56CCCN5CC(F)C6)nc4c3F)c12
-1

# strict comparison: is reported viability, T/C < 10%? input = C[C@@H](NC(=O)c1ncnc(N)c1Cl)c1ncc(C(=O)Nc2cc(C(F)(F)F)c(Cl)cn2)s1 + C#Cc1c(F)ccc2cc(O)cc(-c3ncc4c(N5CC6CCC(C5)N6)nc(OCC56CCCN5CC(F)C6)nc4c3F)c12
-1
